Source: the supplement of paper PMC11061612

Each item that follows carries a reported Bliss excess.
tested on: NCI-H596 (Other Solid Carcinomas); assay: Bliss excess, mean over the matrix (fraction); higher = more synergy

C[C@@H](c1ccc2nccn2c1)n1nnc2ncc(-c3cnn(C)c3)nc21 [Savolitinib] + CN(CC[C@H](CSC1=CC=CC=C1)NC2=C(C=C(C=C2)S(=O)(=O)NC(=O)C3=CC=C(C=C3)N4CCC(CC4)[C@H](C5=CC=CC=C5C6=CC=C(C=C6)Cl)O)S(=O)(=O)C(F)(F)F)CCO [AZD4320] (first compound max 1 µM, 7x7, partner max 1 µM) : -0.018

Entry NC1(C(=O)N[C@@H](CCO)c2ccc(Cl)cc2)CCN(c2ncnc3[nH]ccc23)CC1 [Capivasertib] + COc1nnc2ccc(N3CCC(c4ccc(OCCN5CCN(C)C(=O)[C@H]5C)cc4)CC3)nn12 [AZD5153] (first compound max 10 µM, 7x7, partner max 1 µM) — recorded Bliss excess = -0.0136

Entry C[C@@H](c1ccc2nccn2c1)n1nnc2ncc(-c3cnn(C)c3)nc21 [Savolitinib] + CC1(C)CCC(CN2CCN(c3ccc(C(=O)NS(=O)(=O)c4ccc(NCC5CCOCC5)c([N+](=O)[O-])c4)c(Oc4cnc5[nH]ccc5c4)c3)CC2)=C(c2ccc(Cl)cc2)C1 [Venetoclax] (first compound max 1 µM, 7x7, partner max 1 µM) — recorded Bliss excess = -0.0369

###

system: NCI-H3118 (Head and Neck Carcinoma); test: Bliss excess, mean over the matrix (fraction); higher = more synergy
Output Yes for Bliss excess not less than -0.006; output No otherwise.

[in] Textbook exercise: given the entry C=CCn1c(=O)c2cnc(Nc3ccc(N4CCN(C)CC4)cc3)nc2n1-c1cccc(C(C)(C)O)n1 [AZD1775] + C1CN(CCC1(C(=O)N[C@@H](CCO)C2=CC=C(C=C2)Cl)N)C3=NC=NC4=C3C=CN4 [Capivasertib] (first compound max 3 µM, partner max 3 µM) , state whether its Bliss excess is greater than or equal to -0.006.
[out] No

[in] Textbook exercise: given the entry Cc1c2c(nn1C)CSCc1cc(n(C)n1)CSc1cc(c3ccccc3c1)OCCCc1c(C(=O)O)n(C)c3c-2c(Cl)ccc13 [AZD5991] + C1CN(CCC1(C(=O)N[C@@H](CCO)C2=CC=C(C=C2)Cl)N)C3=NC=NC4=C3C=CN4 [Capivasertib] (first compound max 1 µM, 7x7, partner max 3 µM) , state whether its Bliss excess is greater than or equal to -0.006.
[out] Yes

[in] Textbook exercise: given the entry CC1(C)CCC(CN2CCN(c3ccc(C(=O)NS(=O)(=O)c4ccc(NCC5CCOCC5)c([N+](=O)[O-])c4)c(Oc4cnc5[nH]ccc5c4)c3)CC2)=C(c2ccc(Cl)cc2)C1 [Venetoclax] + C1CN(CCC1(C(=O)N[C@@H](CCO)C2=CC=C(C=C2)Cl)N)C3=NC=NC4=C3C=CN4 [Capivasertib] (first compound max 1 µM, 7x7, partner max 3 µM) , state whether its Bliss excess is greater than or equal to -0.006.
[out] No

###

system: SK-N-SH (Neuroblastoma); assay: combination Emax (second highest fraction inhibited in the dose matrix, 72 h); higher = more inhibition; extreme values may be limits of the assay
measured.attribute: combination Emax
Please give the numeric answer without any surrounding text.

CN(CCO)CC[C@H](CSc1ccccc1)Nc1ccc(S(=O)(=O)NC(=O)c2ccc(N3CCC([C@@H](O)c4ccccc4-c4ccc(Cl)cc4)CC3)cc2)cc1S(=O)(=O)C(F)(F)F [AZD4320] + Cn1cnc2c(F)c(Nc3ccc(Br)cc3Cl)c(C(=O)NOCCO)cc21 [Selumetinib] (first compound max 1 µM, 7x7, partner max 3 µM) : 0.995
C=CCn1c(=O)c2cnc(Nc3ccc(N4CCN(C)CC4)cc3)nc2n1-c1cccc(C(C)(C)O)n1 [AZD1775] + CCc1c2c(nc3ccc(O)cc13)-c1cc3c(c(=O)n1C2)COC(=O)[C@]3(O)CC [SN-38] (first compound max 1 µM, partner max 0.3 µM) : 0.957

Entry CS(=O)(=O)CCNCc1ccc(-c2ccc3ncnc(Nc4ccc(OCc5cccc(F)c5)c(Cl)c4)c3c2)o1 [Lapatinib] + C[C@@H](Oc1cc(-c2cnn(C3CCNCC3)c2)cnc1N)c1c(Cl)ccc(F)c1Cl [Crizotinib] (first compound max 10 µM, 7x7, partner max 10 µM) — recorded combination Emax = 0.899

Entry Cc1cc2ncnn2cc1Nc1ncc2c(n1)n(C1CCOCC1)c(=O)n2C [AZD7648] + C[C@@H]1COCCN1C2=NC(=NC(=C2)C3(CC3)[S@](=N)(=O)C)C4=C5C=CNC5=NC=C4 [AZD6738] (first compound max 10 µM, 7x7, partner max 10 µM) — recorded combination Emax = 0.859

Entry COc1cccc(OCCCN)c1-c1cc(Nc2cnc(C#N)cn2)n[nH]1 [Prexasertib] + CN(C)CCCOc1ccc(-c2ccc3ncc4c(c3c2)n(C2CCOCC2)c(=O)n4C)cn1 [AZD0156] (first compound max 1 µM, 7x7, partner max 1 µM) — recorded combination Emax = 0.876

Entry Cc1cc2ncnn2cc1Nc1ncc2c(n1)n(C1CCOCC1)c(=O)n2C [AZD7648] + O=C(c1cc(Cc2n[nH]c(=O)c3ccccc23)ccc1F)N1CCN(C(=O)C2CC2)CC1 [Olaparib] (first compound max 10 µM, 7x7, partner max 10 µM) — recorded combination Emax = 0.444

Entry CCc1c2c(nc3ccc(O)cc13)-c1cc3c(c(=O)n1C2)COC(=O)[C@]3(O)CC [SN-38] + CN(C)CCCOc1ccc(-c2ccc3ncc4c(c3c2)n(C2CCOCC2)c(=O)n4C)cn1 [AZD0156] (first compound max 0.3 µM, 7x7, partner max 1 µM) — recorded combination Emax = 0.909
